experiment: Oral bioavailability in mouse at 10 mg/kg; type: ADME, organism-based; conditions: in vivo

structure	bioavailability [%]
CCc1nc2cc(Cl)ccn2c1C(=O)NCc1ccc2oc(-c3ccc(OC(F)(F)F)cc3)nc2c1	40.1

* * *

test: Clearance in mouse at 2 mg/kg, iv; assay type: ADME, organism-based; details: in vivo
measurement-type: clearance (mL/min/kg)

structure	measurement-type	obs-value
CCc1nc2cc(Cl)ccn2c1C(=O)NCc1ccc2oc(-c3ccc(OC(F)(F)F)cc3)nc2c1	clearance	0.6

* * *

assay: Half life in human liver microsomes; assay type: ADME, microsome
Each entry below carries its recorded log10 of half-life.
measurement-type: log10 of half-life (log10 of the value in min)

structure	log10 of half-life
CCc1nc2cc(Cl)ccn2c1C(=O)NCc1ccc2oc(-c3ccc(F)cc3)nc2c1	2.01
CCc1nc2ccc(Cl)cn2c1C(=O)NCc1ccc2ccccc2c1	0.84
CCc1nc2ccc(Cl)cn2c1C(=O)NCc1ccc2oc(CN3CCOCC3)nc2c1	1.23
CCc1nc2cc(Cl)ccn2c1C(=O)NCc1ccc2ccccc2c1	1.37
CCc1nc2ccc(Cl)cn2c1C(=O)NCc1ccc2oc(C3CCCCC3)nc2c1	1.23
CCc1nc2cc(Cl)ccn2c1C(=O)NCc1ccc2oc(C3CCCCC3)nc2c1	1.01
CCc1nc2ccc(Cl)cn2c1C(=O)NCc1ccc2oc(C)nc2c1	1.51
CCc1nc2ccc(Cl)cn2c1C(=O)NCc1ccc2oc(-c3ccc(F)cc3)nc2c1	1.41
CCc1nc2cc(Cl)ccn2c1C(=O)NCc1ccc2oc(CN3CCOCC3)nc2c1	1.37
CCc1nc2ccc(Cl)cn2c1C(=O)NCc1ccc2c(c1)OCO2	0.87

* * *

test: AUC (0 to infinity) in mouse at 10 mg/kg, po; type: ADME, organism-based; set-up: dose 10 mg/kg, route oral, time infinity; details: in vivo

structure	AUC(0-inf), µg·h/mL
CCc1nc2cc(Cl)ccn2c1C(=O)NCc1ccc2oc(-c3ccc(OC(F)(F)F)cc3)nc2c1	116

* * *

experiment: Half life in rat liver microsomes; format: ADME, microsome
measurement-type: log10 half-life (log10 of the value in min)

structure	obs-value
CCc1nc2ccc(Cl)cn2c1C(=O)NCc1ccc2ccccc2c1	0.49
CCc1nc2ccc(Cl)cn2c1C(=O)NCc1ccc2oc(C3CCCCC3)nc2c1	0.72
CCc1nc2cc(Cl)ccn2c1C(=O)NCc1ccc2oc(C)nc2c1	1.01
CCc1nc2ccc(Cl)cn2c1C(=O)NCc1ccc2oc(-c3ccc(F)cc3)nc2c1	1.73
CCc1nc2ccc(Cl)cn2c1C(=O)NCc1ccc2oc(C)nc2c1	0.76
CCc1nc2ccc(Cl)cn2c1C(=O)NCc1ccc2c(c1)OCO2	0.32
CCc1nc2ccc(Cl)cn2c1C(=O)NCc1ccc2oc(CN3CCOCC3)nc2c1	1.15
CCc1nc2cc(Cl)ccn2c1C(=O)NCc1ccc2ccccc2c1	0.80

* * *

test: Tmax in mouse at 10 mg/kg, po; type: ADME, organism-based; conditions: in vivo
measurement-type: Tmax (h)

structure	measurement-type	value-units	obs-value
CCc1nc2cc(Cl)ccn2c1C(=O)NCc1ccc2oc(-c3ccc(OC(F)(F)F)cc3)nc2c1	Tmax	h	1

* * *

assay: Half life in rat liver microsomes; type: ADME, microsome

structure	half-life
CCc1nc2cc(Cl)ccn2c1C(=O)NCc1ccc2oc(-c3ccc(F)cc3)nc2c1	> 120 min
CCc1nc2cc(Cl)ccn2c1C(=O)NCc1ccc2oc(CN3CCOCC3)nc2c1	18.9 min
CCc1nc2cc(Cl)ccn2c1C(=O)NCc1ccc2oc(C3CCCCC3)nc2c1	9.5 min

* * *

assay: Cmax in mouse at 10 mg/kg, po; assay type: ADME, organism-based; set-up: dose 10 mg/kg, route oral; conditions: in vivo

structure	Cmax, ng/mL
CCc1nc2cc(Cl)ccn2c1C(=O)NCc1ccc2oc(-c3ccc(OC(F)(F)F)cc3)nc2c1	5560

* * *

assay: Half life in mouse at 2 mg/kg, iv; type: ADME, organism-based; conditions: in vivo

structure	half-life
CCc1nc2cc(Cl)ccn2c1C(=O)NCc1ccc2oc(-c3ccc(OC(F)(F)F)cc3)nc2c1	18 h

* * *

experiment: Half life in human liver microsomes; format: ADME, microsome
Below, each entry is listed alongside its reported half-life.

structure	half-life
CCc1nc2cc(Cl)ccn2c1C(=O)NCc1ccc2oc(C)nc2c1	> 2 h
CCc1nc2cc(Cl)ccn2c1C(=O)NCc1ccc2oc(-c3ccc(OC(F)(F)F)cc3)nc2c1	> 2 h
CCc1nc2ccc(Cl)cn2c1C(=O)NCc1ccc2oc(-c3ccc(OC(F)(F)F)cc3)nc2c1	> 2 h
